Task for the reader: assign each of the following molecules its reported Ki.
system tested: UniProtKB Q08881
protocol summary: ITK inhibition assay, radioactive-phosphate incorporation
Type: biochemical
details: [γ-33P]ATP, SAM68 peptide, 25° C.

molecule	Ki
CNc1nccc(-c2c[nH]c(=O)c(NC(=O)c3ccc(NCCCN)cc3)c2)n1	< 100 nM
CNc1cncc(-c2c[nH]c(=O)c(NC(=O)c3ccc(OCC4CCNCC4)cc3)c2)n1	< 100 nM
CC(C)(C)c1ccc(C(=O)Nc2cc(-c3ccnc(NC4CCNC4)n3)c[nH]c2=O)cc1 (stereo not shown)	< 100 nM

Next:
Supply Ki value. Item: O=C(Nc1cc(-c2ccncc2)c[nH]c1=O)c1ccc(OCc2ccccc2)cc1
100 to 1000 nM

###

system tested: UniProt:P42681
Sequence (P42681 whole entry, species assumed): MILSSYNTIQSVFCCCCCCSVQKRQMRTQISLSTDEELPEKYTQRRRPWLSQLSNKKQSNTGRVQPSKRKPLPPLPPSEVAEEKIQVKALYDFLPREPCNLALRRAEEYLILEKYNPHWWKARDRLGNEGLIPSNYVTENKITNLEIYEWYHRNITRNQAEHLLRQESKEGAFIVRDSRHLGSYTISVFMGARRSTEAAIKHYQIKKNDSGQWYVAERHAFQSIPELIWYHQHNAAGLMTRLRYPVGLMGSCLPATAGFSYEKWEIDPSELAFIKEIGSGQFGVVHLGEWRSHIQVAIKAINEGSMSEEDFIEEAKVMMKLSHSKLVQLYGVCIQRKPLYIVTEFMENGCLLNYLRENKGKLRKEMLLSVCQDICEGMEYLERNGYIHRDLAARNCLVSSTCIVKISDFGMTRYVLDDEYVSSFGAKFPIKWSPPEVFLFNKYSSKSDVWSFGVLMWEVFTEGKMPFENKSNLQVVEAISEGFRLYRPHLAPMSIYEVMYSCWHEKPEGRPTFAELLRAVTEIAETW
protocol summary: RLK inhibition assay, standard coupled enzyme assay
details: 100 μM ATP, 40 nM Rlk, 30° C.
pKi: −log10 of the molar value.
parameter: pKi

structure smiles string	result
CNCCNc1cccc(-c2c[nH]c(=O)c(NC(=O)c3ccc(N4CCCCC4)cc3)c2)c1	< 6.00
CNc1nccc(-c2c[nH]c(=O)c(NC(=O)c3ccc(C(C)(C)C)cc3)c2)n1	> 6.00
CNc1nccc(-c2c[nH]c(=O)c(NC(=O)c3ccc(N4CCC[C@H]4CN4CCCC4)cc3)c2)n1	> 6.00
CNc1cncc(-c2c[nH]c(=O)c(NC(=O)c3ccc(N(C)CCN(C)C)cc3)c2)n1	< 6.00
CNCCNc1cccc(-c2c[nH]c(=O)c(NC(=O)c3ccc(C(C)(C)C)cc3)c2)n1	> 6.00
CNc1cc(-c2c[nH]c(=O)c(NC(=O)c3ccc(N4CCCCC4)cc3)c2)ncn1	< 6.00

Give measured pKi for every item shown.
1. Cn1cc(-c2c[nH]c(=O)c(NC(=O)c3ccc(C(C)(C)C)cc3)c2)cn1
2. CNc1cncc(-c2c[nH]c(=O)c(NC(=O)c3ccc(N4CCN(CCO)CC4)cc3)c2)n1

< 6.00
< 6.00

###

Task for the reader: assign each of the following molecules its reported pKi.
system tested: Itk (Homo sapiens)
protocol summary: ITK inhibition assay, radioactive-phosphate incorporation
Format: biochemical
details: [γ-33P]ATP, SAM68 peptide, 25° C.
Experimental: Assays were carried out in a mixture of 20 mM MOPS (pH 7.0), 10 mM MgCl2, 0.1% BSA and 1 mM DTT. […] Assays were carried out at 25° C. in the presence of 50 nM Itk. […] Ki(app) data were calculated from non-linear regression analysis of the initial rate data using the Prism software package (GraphPad Prism version 3.0cx for Macintosh, GraphPad Software, San Diego Calif., USA).
pKi: −log10 of the molar value.

structure smiles string	pKi
CCc1cc(-c2c[nH]c(=O)c(NC(=O)c3ccc(N4CCCCC4)cc3)c2)nc(NC)n1	> 7.00
O=C(Nc1cc(-c2cccc(NC3(CO)CCCC3)n2)c[nH]c1=O)c1ccc(N2CCCCC2)cc1	6.00 to 7.00

Supply pKi value. Item: CNc1nccc(-c2c[nH]c(=O)c(NC(=O)c3ccc(N4CCCCC4)cc3)c2)n1
> 7.00

###

Task for the reader: assign each of the following molecules its reported pKi.
system tested: Itk (Homo sapiens, UniProt Q08881)
Sequence (Q08881 whole entry, species assumed): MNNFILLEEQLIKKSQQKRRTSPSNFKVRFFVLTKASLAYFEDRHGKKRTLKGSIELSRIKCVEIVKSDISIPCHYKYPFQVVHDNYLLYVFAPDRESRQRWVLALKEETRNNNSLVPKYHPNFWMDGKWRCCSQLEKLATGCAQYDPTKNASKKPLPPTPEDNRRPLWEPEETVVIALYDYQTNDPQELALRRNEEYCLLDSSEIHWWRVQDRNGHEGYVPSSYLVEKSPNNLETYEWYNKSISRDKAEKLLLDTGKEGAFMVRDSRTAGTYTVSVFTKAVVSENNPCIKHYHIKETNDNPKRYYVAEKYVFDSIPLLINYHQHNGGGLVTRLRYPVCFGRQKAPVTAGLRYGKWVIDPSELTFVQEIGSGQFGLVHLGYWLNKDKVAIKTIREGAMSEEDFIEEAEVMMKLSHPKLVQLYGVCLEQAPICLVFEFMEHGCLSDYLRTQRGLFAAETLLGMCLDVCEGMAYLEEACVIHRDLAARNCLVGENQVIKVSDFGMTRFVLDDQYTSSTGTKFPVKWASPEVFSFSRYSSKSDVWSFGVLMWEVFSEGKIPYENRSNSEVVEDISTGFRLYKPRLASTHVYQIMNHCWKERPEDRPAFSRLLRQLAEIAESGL
protocol summary: ITK inhibition assay, radioactive-phosphate incorporation
Type: biochemical
details: [γ-33P]ATP, SAM68 peptide, 25° C.
pKi: −log10 of the molar value.

molecule	pKi
CCC(C)[C@@H](CO)Nc1cccc(-c2c[nH]c(=O)c(NC(=O)c3ccc(N4CCCCC4)cc3)c2)n1 (some centres unmarked) [II-152]	6.00 to 7.00
O=C1C=C(c2c[nH]c(=O)c(NC(=O)c3ccc(N4CCCCC4)cc3)c2)CCC1 [II-85]	6.00 to 7.00
CNc1nccc(-c2c[nH]c(=O)c(NC(=O)c3ccccc3)c2)n1 [II-64]	> 7.00
CC(C)(C)c1ccc(C(=O)Nc2cc(-c3ccncc3)c[nH]c2=O)cc1 [Compound I-11]	6.00 to 7.00
CC(C)[C@@H](CO)Nc1cncc(-c2c[nH]c(=O)c(NC(=O)c3ccc(N4CCNCC4)cc3)c2)n1 [II-131]	> 7.00

Give measured pKi for every item shown.
1. CNc1nc(C)cc(-c2c[nH]c(=O)c(NC(=O)c3ccc(N4CCCCC4)cc3)c2)n1 [II-130]
2. CN(C)CCN(C)c1nccc(-c2c[nH]c(=O)c(NC(=O)c3ccc(N4CCCCC4)cc3)c2)n1 [II-61]
3. CNCCCN(C)Cc1ccc(C(=O)Nc2cc(-c3ccncc3)c[nH]c2=O)cc1 [Compound I-85]

["> 7.00", "6.00 to 7.00", "6.00 to 7.00"]
